# assay.system: Tumour suppressor p53/oncoprotein Mdm2 (Homo sapiens, UniProt Q00987)
# Sequence (P04637 whole entry, the tested form may be a part): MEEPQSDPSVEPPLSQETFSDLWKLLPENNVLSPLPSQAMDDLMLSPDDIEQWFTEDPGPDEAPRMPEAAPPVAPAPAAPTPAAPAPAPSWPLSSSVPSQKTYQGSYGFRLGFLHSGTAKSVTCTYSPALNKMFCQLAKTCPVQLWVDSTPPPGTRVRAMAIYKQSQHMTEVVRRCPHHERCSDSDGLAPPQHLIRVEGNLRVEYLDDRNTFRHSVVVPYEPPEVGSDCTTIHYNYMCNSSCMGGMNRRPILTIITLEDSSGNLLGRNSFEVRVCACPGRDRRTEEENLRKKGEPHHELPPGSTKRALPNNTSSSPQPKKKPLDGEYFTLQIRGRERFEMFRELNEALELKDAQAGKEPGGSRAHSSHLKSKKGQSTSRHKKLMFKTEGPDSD
# Sequence (Q00987 whole entry, the tested form may be a part): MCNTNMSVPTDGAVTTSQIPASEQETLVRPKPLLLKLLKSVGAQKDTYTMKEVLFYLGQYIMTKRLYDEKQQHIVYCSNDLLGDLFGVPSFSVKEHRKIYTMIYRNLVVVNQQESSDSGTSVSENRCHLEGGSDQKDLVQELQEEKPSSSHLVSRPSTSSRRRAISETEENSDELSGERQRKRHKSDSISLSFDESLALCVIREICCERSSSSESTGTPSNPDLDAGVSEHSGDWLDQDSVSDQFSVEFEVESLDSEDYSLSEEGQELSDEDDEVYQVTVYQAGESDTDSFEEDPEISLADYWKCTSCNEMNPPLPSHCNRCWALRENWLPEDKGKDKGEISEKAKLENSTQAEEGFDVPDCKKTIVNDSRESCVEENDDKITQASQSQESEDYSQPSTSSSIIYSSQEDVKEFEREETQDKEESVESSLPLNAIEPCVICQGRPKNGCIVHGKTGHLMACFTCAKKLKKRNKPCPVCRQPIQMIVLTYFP
# experiment.description: Inhibition of C-terminal biotin-tagged streptavidin labelled human MDM2 ( 2 to 188 residues)/Cy5-labelled p53 (18 to 26 residues)(unknown origin) interaction after 15 mins by TR-FRET assay
Reported log10 of IC50 is given for each of the following molecules.
property: log10 of IC50 (log10 of the value in nM)

[[record]]
molecule = "Cc1cc(Cl)ccc1C1c2c(C(C)C)n[nH]c2C(=O)N1c1cc(Cl)ccc1C (racemic)"
assay_system = "Tumour suppressor p53/oncoprotein Mdm2 (Homo sapiens, UniProt Q00987)"
property = "log10 of IC50"
reported_result = 0.62

[[record]]
molecule = "Cc1ccc(N2C(=O)c3[nH]nc(C)c3C2c2ccc(Cl)cc2)cc1 (stereo not given)"
assay_system = "Tumour suppressor p53/oncoprotein Mdm2 (Homo sapiens, UniProt Q00987)"
property = "log10 of IC50"
reported_result = 3.18

[[record]]
molecule = "CC(C)c1n[nH]c2c1C(c1ccc(Cl)cc1)N(c1cccc(Cl)c1)C2=O (racemic)"
assay_system = "Tumour suppressor p53/oncoprotein Mdm2 (Homo sapiens, UniProt Q00987)"
property = "log10 of IC50"
reported_result = 1.51

[[record]]
molecule = "CC(C)(C)c1n[nH]c2c1C(c1ccc(Cl)cc1)N(c1cccc(Cl)c1)C2=O (racemic)"
assay_system = "Tumour suppressor p53/oncoprotein Mdm2 (Homo sapiens, UniProt Q00987)"
property = "log10 of IC50"
reported_result = 1.26

[[record]]
molecule = "Cc1n[nH]c2c1C(c1ccc(Cl)cc1)N(c1cccc(Cl)c1)C2=O (racemic)"
assay_system = "Tumour suppressor p53/oncoprotein Mdm2 (Homo sapiens, UniProt Q00987)"
property = "log10 of IC50"
reported_result = 2.54


Value source: ChEMBL document CHEMBL4431357
